Before we begin, note that these pIC50 values for CD73 (Homo sapiens (Human)) originate from several publications.
pIC50: −log10 of the molar value.

Example cases with answers are listed next.
C[C@](CO)(OC[C@H]1O[C@@H](n2ncc3c(NC4CCCC4)nc(Cl)nc32)[C@H](O)[C@@H]1O)P(=O)(O)O = ≥ 7.00
CC(C)OC(=O)OCOP(=O)(O)CC(=O)N(C)C[C@H]1O[C@@H](n2cnc3c(NC4CCCC4)nc(Cl)nc32)[C@H](O)[C@@H]1O = < 6.00
O=P(O)(O)C(CO)(Cc1cc(O)no1)OC[C@H]1O[C@@H](n2ncc3c(NC4CCCC4)nc(Cl)nc32)[C@H](O)[C@@H]1O (mixture of isomers) = ≥ 7.00
O=P(O)(O)CS(=O)(=O)C[C@H]1O[C@@H](n2ncc3c(NCC4CCC4)nc(Cl)nc32)[C@H](O)[C@@H]1O = ≥ 6.30
O=C(NC1CC(F)(F)C1)O[C@@H]1CCN(c2cn[nH]c(=O)c2Cl)C1 = 5.00 to 9.00

Kindly give each listed record's pIC50.
1. O=P(O)(O)CP(=O)(O)OC[C@H]1O[C@@H](n2cnc3c(NCc4cccc5ccccc45)nc(Cl)nc32)[C@@H](O)C1O (some centres unmarked)
2. O=P(O)(O)COC[C@H]1O[C@@H](n2ncc3c(NCC4CC4)nc(Cl)nc32)[C@H](O)[C@@H]1O
3. O=P(O)(O)[C@@](CO)(COCc1nn[nH]n1)OC[C@H]1O[C@@H](c2ccc3c(NCC4CC4)nc(Cl)nn23)[C@H](O)[C@@H]1O
4. NC(=O)c1cc(S(=O)(=O)Nc2ccc(CCCOc3nc(N)n4nc(-c5ccco5)nc4n3)cc2)cc(Cl)c1O
5. O=P(O)(O)C(CO)(COCCO)OC[C@H]1O[C@@H](n2ncc3c(NC4CCCC4)nc(Cl)nc32)[C@H](O)[C@@H]1O (mixture of isomers)
6. O=P(O)(O)C(COCc1nnn[nH]1)(Cc1nnn[nH]1)OC[C@H]1O[C@@H](n2ncc3c(NC4CCCC4)nc(Cl)nc32)[C@H](O)[C@@H]1O (stereo in doubt)

> 8.00
≥ 6.30
≥ 9.30
> 7.00
≥ 7.00
≥ 8.00

Kindly give each listed record's pIC50.
1. O=P(O)(O)C(CO)(CO)OC[C@H]1O[C@@H](n2ncc3c(N[C@@H]4CCc5ccccc54)nc(OCCO)nc32)[C@H](O)[C@@H]1O
2. NCCn1ncc(N2CC[C@@H](OC(=O)N[C@H]3CC[C@@H](NC(=O)NC4CC4)CC3)C2)c(Cl)c1=O
3. N#Cc1c(N2C[C@H](OC(=O)NC3CCCC3)[C@@H](F)C2)cn[nH]c1=O
4. CS(=O)(=O)N[C@H]1CC[C@H](NC(=O)O[C@@H]2CCN(c3cnn(CCO)c(=O)c3Cl)C2)CC1
5. COCC(C)(OC[C@H]1O[C@@H](n2nnc3c(NC4CCCC4)nc(Cl)nc32)[C@H](O)[C@@H]1O)P(=O)(O)O (some centres unmarked)
6. NC(=O)c1cc(S(=O)(=O)Nc2ccc(CNc3nc(N)n4nc(-c5ccco5)nc4n3)cc2)cc(Cl)c1O
7. C[C@@H](Nc1cc(Cl)nc2c1cnn2[C@@H]1O[C@H](COP(=O)(O)CP(=O)(O)O)[C@@H](O)[C@H]1O)c1ccc(S(F)(F)(F)(F)F)cc1F
8. O=P(O)(O)COC[C@H]1O[C@@H](n2ncc3c(NC4CC4)nc(Cl)nc32)[C@H](O)[C@@H]1O

1. ≥ 7.00
2. 5.00 to 9.00
3. 5.00 to 9.00
4. 5.00 to 9.00
5. ≥ 7.00
6. 6.00 to 6.96
7. 7.50
8. ≥ 6.30

Kindly give each listed record's pIC50.
1. O=C(N[C@H]1CCC[C@H]1O)O[C@@H]1CCN(c2cn[nH]c(=O)c2Cl)C1
2. C[C@H](Nc1nc(Cl)nc2c1nnn2[C@@H]1O[C@H](CS(=O)(=O)CP(=O)(O)O)[C@@H](O)[C@H]1O)c1ccc(F)cc1
3. O=P(O)(O)[C@](CO)(Cc1nn[nH]n1)OC[C@H]1O[C@@H](n2ncc3c(NC4CCCC4)nc(CO)nc32)[C@H](O)[C@@H]1O (racemic)
4. CCn1cc(S(=O)(=O)N[C@H]2CC[C@H](NC(=O)O[C@@H]3CCN(c4cnn(C)c(=O)c4Cl)C3)CC2)cn1
5. COC[C@@](COCc1nn[nH]n1)(OC[C@H]1O[C@@H](n2ncc3c(NC4CCCC4)nc(Cl)nc32)[C@H](O)[C@@H]1O)P(=O)(O)O
6. Cc1ccccc1S(=O)(=O)N[C@H]1CC[C@H](NC(=O)O[C@@H]2CCN(c3cn[nH]c(=O)c3Cl)C2)CC1
7. COc1ccc(S(=O)(=O)N[C@H]2CC[C@H](NC(=O)O[C@@H]3CCN(c4cn[nH]c(=O)c4Cl)C3)CC2)cc1

1: 5.00 to 9.00; 2: ≥ 6.30; 3: ≥ 7.00; 4: 5.00 to 9.00; 5: ≥ 8.00; 6: 5.00 to 9.00; 7: 5.00 to 9.00
